B1: KLHDC10 (parent)
chain: FGGTGIPFGESNGNGVHVCNVKYK

Variants of: B1
RUN DESCRIPTION: protein stability index of a GFP-peptide fusion (GPS, HEK-293T) (PSI 1-6); higher = more stable;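 also: lentivirally expressed fusions sorted by FACS into six bins by GFP to DsRed ratio, PSI derived from sequencing read proportions per bin multiplied by bin number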
DETAILS: c terminus: a fixed tail appended
Item-by-item account of protein stability index

{"MUTATION KEY": "C19S", "protein stability index": 2.01}
{"MUTATION KEY": "V21C", "protein stability index": 2.04}
{"MUTATION KEY": "F8W", "protein stability index": 1.98}
{"MUTATION KEY": "Y23K", "protein stability index": 2.01}

Consider the record given below.
Q. Given "V16T" , state its recorded protein stability index.
A. 1.98
